This listing pairs compounds with measured logP[b].
# Measurement Notes: log P determination by HPLC on reversed-phase columns (C 18), analogous to OECD Guideline 117
# Type: physicochemical
# Condition Notes: method [b]
Write no unit; give the number alone.

Identify logP[b] associated with the compound `Cc1cc(F)c(N2C(=O)CN(C(=O)Nc3ccccc3)C2=O)cc1SCC(F)(F)F`
3.71

Identify logP[b] associated with the compound `Cc1cc(C)c(N2C(=O)CN(C(=O)Nc3ccc(F)cc3)C2=O)cc1SCC(F)(F)F`
3.86

Identify logP[b] associated with the compound `Cc1cc(Cl)c(N2C(=O)CN(C(=O)NCc3ccccc3)C2=O)cc1SCC(F)(F)F`
3.61

More entries:
Identify logP[b] associated with the compound `Cc1cc(Cl)c(N2C(=O)CN(C(=O)Nc3cccc(CC(F)(F)F)c3)C2=O)cc1SCC(F)(F)F`
4.38

Identify logP[b] associated with the compound `CCNC(=O)N1CC(=O)N(c2cc(SCC(F)(F)F)c(C)cc2F)C1=O`
2.93

Identify logP[b] associated with the compound Cc1cc(F)c(N2C(=O)C(C)N(C(=O)NCc3ccccc3)C2=O)cc1SCC(F)(F)F (racemic)
3.91

Identify logP[b] associated with the compound `Cc1cc(F)c(N2C(=O)CN(C(=O)NCc3ccccc3)C2=O)cc1SCC(F)(F)F`
3.53

Identify logP[b] associated with the compound Cc1cc(F)c(N2C(=O)N(C(=O)NCC(C)C)C(C)(C)C2=O)cc1[S+]([O-])CC(F)(F)F (racemic)
3.39

Identify logP[b] associated with the compound Cc1cc(Cl)c(N2C(=O)CN(C(=O)NCc3ccccc3)C2=O)cc1[S+]([O-])CC(F)(F)F (racemic)
2.91

Identify logP[b] associated with the compound `CCNC(=O)N1CC(=O)N(c2cc(SCC(F)(F)F)c(C)cc2C)C1=O`
3.04

###

# Measurement Notes: log P determination by HPLC on reversed-phase columns (C 18), analogous to OECD Guideline 117
# Type: physicochemical
# Condition Notes: method [b]
Quantity Kind: logP[b]
Write no unit; give the number alone.

Sample answers from the record:
Identify logP[b] associated with the compound Cc1cc(F)c(N2C(=O)CN(C(=O)NCC(F)(F)F)C2=O)cc1[S+]([O-])CC(F)(F)F (single isomer, unassigned) [Ex. No. 136]
2.43

Identify logP[b] associated with the compound `Cc1cc(F)c(N2C(=O)CN(C(=O)N(C)C3CC3)C2=O)cc1SCC(F)(F)F`
3.03

Identify logP[b] associated with the compound Cc1cc(Cl)c(N2C(=O)CN(C(=O)Nc3ccc(F)cc3)C2=O)cc1[S+]([O-])CC(F)(F)F (racemic)
3.09

Okay, next one:
Identify logP[b] associated with the compound `O=C(Nc1cccc(C(F)(F)F)c1)N1CC(=O)N(c2cc(SCC(F)(F)F)c(Cl)cc2Cl)C1=O`
4.61

###

# Measurement Notes: log P determination by HPLC on reversed-phase columns (C 18), analogous to OECD Guideline 117
# Type: physicochemical
# Condition Notes: method [a]
Quantity Kind: logP[a]
Write no unit; give the number alone.

Identify logP[a] associated with the compound Cc1cc(F)c(N2C(=O)CN(C(=O)NC(C)C)C2=S)cc1SCC(F)(F)F [compound 5]
3.98

Identify logP[a] associated with the compound Cc1cc(F)c(N2C(=O)C(C)N(C(=O)NCC(F)(F)F)C2=O)cc1[S+]([O-])CC(F)(F)F (mixture of isomers) [compound 88]
2.75

Identify logP[a] associated with the compound Cc1cc(C)c([S+]([O-])CC(F)(F)F)cc1N1C(=O)CN(C(=O)NC(C)C)C1=O (centres unmarked) [compound 23]
2.52

Identify logP[a] associated with the compound Cc1cc(F)c(N2C(=O)CN(C(=O)NCC(C)C)C2=S)cc1SCC(F)(F)F [compound 11]
4.27

More entries:
Identify logP[a] associated with the compound Cc1cc(Cl)c(N2C(=O)CN(C(=O)Nc3cccc(Cl)c3)C2=O)cc1SCC(F)(F)F [compound 59]
4.46
